Source listed as ChEMBL document CHEMBL1144992.

# Test system: EMT6
# PROCEDURE_SUMMARY: In vitro cellular toxicity against murine mammary carcinoma EMT6 cell line after 4 hr of compound exposure
# Format: functional, cell-based
# TEST_CONTEXT: Mus musculus, EMT6, 4 h
Sorting guide: entries reporting IC50 beneath 3 nM go in the Fulfilled pile, the rest go in the Not fulfilled pile.

>>> label("COc1cc2c(cc1OCCC(=O)N1C[C@H](CCl)c3c1cc(O)c1ccccc31)N=CC1CCCN1C2=O (single isomer, unassigned)")
"Not fulfilled"
>>> label("COc1cc2c(cc1OCC(=O)N1C[C@H](CCl)c3c1cc(O)c1ccccc31)N=CC1CCCN1C2=O (single isomer, unassigned)")
"Not fulfilled"
>>> label("COc1cc2c(cc1OCCCCC(=O)N1C[C@H](CCl)c3c1cc(O)c1ccccc31)N=CC1CCCN1C2=O (single isomer, unassigned)")
"Not fulfilled"
>>> label("COc1cc2c(cc1OCCCCCC(=O)N1CC(C)c3c1cc(O)c1ccccc31)N=C[C@@H]1CCCN1C2=O (stereo partly specified)")
"Not fulfilled"
>>> label("COc1cc2c(cc1OCCCCCC(=O)N1C[C@@H](CCl)c3c1cc(O)c1ccccc31)N=C[C@@H]1CCCN1C2=O")
"Fulfilled"
>>> label("CC(=O)N1C[C@@H](CCl)c2c1cc(O)c1ccccc21")
"Not fulfilled"
>>> label("CC(=O)N1C[C@H](CCl)c2c1cc(O)c1ccccc21")
"Not fulfilled"
>>> label("COc1cc2c(cc1OCCCCCC(=O)N1C[C@H](CCl)c3c1cc(O)c1ccccc31)N=CC1CCCN1C2=O (single isomer, unassigned)")
"Fulfilled"
>>> label("COc1cc2c(cc1O)N=C[C@@H]1CCCN1C2=O")
"Not fulfilled"
>>> label("COc1cc2cc(C(=O)N3C[C@@H](CCl)c4c3cc(O)c3ccccc43)[nH]c2c(OC)c1OC")
"Fulfilled"
>>> label("COc1cc2c(cc1OCCCCC(=O)N1C[C@@H](CCl)c3c1cc(O)c1ccccc31)N=C[C@@H]1CCCN1C2=O")
"Not fulfilled"
>>> label("COc1cc2c(cc1OCCCC(=O)N1C[C@@H](CCl)c3c1cc(O)c1ccccc31)N=C[C@@H]1CCCN1C2=O")
"Fulfilled"
>>> label("COc1cc2c(cc1OCCCCCC(=O)N1C[C@@H](CCl)c3c1cc(O)c1ccccc31)NC(=O)[C@@H]1CCCN1C2=O")
"Not fulfilled"
>>> label("COc1cc2c(cc1OCCC(=O)N1C[C@@H](CCl)c3c1cc(O)c1ccccc31)N=C[C@@H]1CCCN1C2=O")
"Not fulfilled"
>>> label("COc1cc2c(cc1OCCCOc1cc3c(cc1OC)C(=O)N1CCC[C@H]1C=N3)N=C[C@@H]1CCCN1C2=O")
"Not fulfilled"
>>> label("COc1cc2c(cc1OCCCC(=O)N1C[C@H](CCl)c3c1cc(O)c1ccccc31)N=CC1CCCN1C2=O (single isomer, unassigned)")
"Fulfilled"

###

# Test system: Panel (Carcinoma cell lines)
# PROCEDURE_SUMMARY: In vitro drug concentration required for 50% inhibition of 60 different human cancer cell lines compared to controls
# Format: functional
MEASUREMENT_LABEL: GI50 (nM)

>>> value_measured("COc1cc2c(cc1OCCCCCC(=O)N1C[C@H](CCl)c3c1cc(O)c1ccccc31)N=CC1CCCN1C2=O (single isomer, unassigned)")
18
>>> value_measured("COc1cc2c(cc1OCCC(=O)N1C[C@@H](CCl)c3c1cc(O)c1ccccc31)N=C[C@@H]1CCCN1C2=O")
500
>>> value_measured("COc1cc2c(cc1OCCCC(=O)N1C[C@H](CCl)c3c1cc(O)c1ccccc31)N=CC1CCCN1C2=O (single isomer, unassigned)")
13
